Where do the numbers come from? From PubChem BioAssay (NCI).

- System: SNB-75 CNS
- EXPERIMENT DESCRIPTION: NCI tumour cell line growth inhibition, 48 h
*1 amine or outer side, *2 acyl side, *3 side chain or, on linkers, in order; H or OH if unused. Where a SMILES comes first, the peptide text is derived from it. Bridges are numbered along the chain shown (N, C = ends). [ ]: non-standard residue; d: D form. The star is where a group is joined. Phe(3-Me) = Cc1cccc(C[C@H](N)C(=O)O)c1; NH(4-Cl-2-F-phenyl) = Fc1cc(Cl)ccc1N*; Pro(4R-Me) = C[C@H]1CN[C@H](C(=O)O)C1; Propanoyl(3-NMe2) = CN(C)CCC(=O)*; Hyp = O=C(O)[C@@H]1C[C@@H](O)CN1; aThr = C[C@H](O)[C@H](N)C(=O)O; Pip = O=C(O)[C@@H]1CCCCN1; CO = O=C([*:1])[*:2]
# label = Met if TGI >= 40 µM else Not met

Quick check, TGI >= 40 µM? COc1cc2c3c(n(CCCCl)c(=O)c2cc1OC)-c1ccc(C#N)cc1C3=O Not met

Quick check, TGI >= 40 µM? CC1=CC2C(C(C)C)CC1C1C(=O)OC(=O)C21 (stereo not drawn) Met

Quick check, TGI >= 40 µM? CCOC1SC(SC)=NN1C(=O)C(OC(C)=O)C(OC(C)=O)C(OC(C)=O)C(OC(C)=O)C(=O)N1N=C(SC)SC1OCC (stereo not drawn) Met

Quick check, TGI >= 40 µM? CCOC(=O)C1(Cc2ccccc2)Cc2ccccc2C1=O (stereo not drawn) Met

Quick check, TGI >= 40 µM? CC(C)Oc1ccc(C(=O)N[C@H](CNC(=O)CN(C)C)Cc2ccc(-c3cn4cccc([C@H](C)O)c4n3)cc2)cc1Cl Not met

Quick check, TGI >= 40 µM? CC1(C)C2CCC1(CC(=O)O)C(Cl)C2 (stereo not drawn) Met

Quick check, TGI >= 40 µM? Cc1cc(-c2ccccc2)cc2[n+]1CC=C2 Met

Quick check, TGI >= 40 µM? O=C1OC2C(O)C(=O)OC2C1O (stereo not drawn) Met

Quick check, TGI >= 40 µM? C[C@]12CCC(=O)C=C1CC[C@@H]1C2CC[C@]2(C)Nc3c(ncn3-c3ccc(F)cc3)CC12 (stereo partly drawn) Met

Quick check, TGI >= 40 µM? C=C1N(C)c2ccc(Cl)cc2C1(C)C Met

Quick check, TGI >= 40 µM? C=C(CN1CCN(c2cccc(F)c2)CC1)c1ccc(C(=O)Nc2ccccc2N)cc1 Not met

Quick check, TGI >= 40 µM? Cc1cccc(C[C@H](NC(=O)Nc2ccc(Cl)cc2F)C(=O)N[C@@H]2C(=O)N3C[C@H](OC(=O)CCN(C)C)C[C@H]3C(=O)N3CCCC[C@H]3C(=O)N[C@@H](C)C(=O)N3C[C@H](C)C[C@H]3C(=O)O[C@H]2C)c1 ({NH(4-Cl-2-F-phenyl)-CO}-[Phe(3-Me)][aThr][Hyp](Propanoyl(3-NMe2))[Pip]A[Pro(4R-Me)]; ester 2-C) Not met

Quick check, TGI >= 40 µM? CC(C)[C@@H]1CC[C@@H]2[C@@H]1[C@H](OC(=O)/C=C/c1ccccc1)[C@]1(C(C)C)C[C@@H](OC(=O)CO)[C@@]2(C)O1 Not met

Quick check, TGI >= 40 µM? CCC/C(=N\NC(=O)c1cc2ccccc2cc1O)C(CC)C(=O)CCC(=O)N(Cc1ccccc1)Cc1ccccc1 (stereo not drawn) Met

Quick check, TGI >= 40 µM? COc1cc(OC)cc(-c2cncn2-c2ccc(-c3nc4cc(OC)c(OC)c(OC)c4s3)cc2)c1 Met

Quick check, TGI >= 40 µM? O=CC1(C2(C=O)c3ccccc3-c3ccccc32)c2ccccc2-c2ccccc21 Not met

Quick check, TGI >= 40 µM? O=C1C(N2C(=O)c3ccccc3C2=O)CN1C(COCc1ccccc1)c1ccc(OCc2ccccc2)cc1 (stereo not drawn) Met
